molecular target: EGFR (Homo sapiens, UniProt P00533); construct: endogenous in cells; host or cells: A431 cells (ATCC CRL-1555); test: EGFR in-cell Western (ICW) screening protocol; format: cell-based; set-up: unit not given here; details: initial screen
Sequence (P00533 25-1210): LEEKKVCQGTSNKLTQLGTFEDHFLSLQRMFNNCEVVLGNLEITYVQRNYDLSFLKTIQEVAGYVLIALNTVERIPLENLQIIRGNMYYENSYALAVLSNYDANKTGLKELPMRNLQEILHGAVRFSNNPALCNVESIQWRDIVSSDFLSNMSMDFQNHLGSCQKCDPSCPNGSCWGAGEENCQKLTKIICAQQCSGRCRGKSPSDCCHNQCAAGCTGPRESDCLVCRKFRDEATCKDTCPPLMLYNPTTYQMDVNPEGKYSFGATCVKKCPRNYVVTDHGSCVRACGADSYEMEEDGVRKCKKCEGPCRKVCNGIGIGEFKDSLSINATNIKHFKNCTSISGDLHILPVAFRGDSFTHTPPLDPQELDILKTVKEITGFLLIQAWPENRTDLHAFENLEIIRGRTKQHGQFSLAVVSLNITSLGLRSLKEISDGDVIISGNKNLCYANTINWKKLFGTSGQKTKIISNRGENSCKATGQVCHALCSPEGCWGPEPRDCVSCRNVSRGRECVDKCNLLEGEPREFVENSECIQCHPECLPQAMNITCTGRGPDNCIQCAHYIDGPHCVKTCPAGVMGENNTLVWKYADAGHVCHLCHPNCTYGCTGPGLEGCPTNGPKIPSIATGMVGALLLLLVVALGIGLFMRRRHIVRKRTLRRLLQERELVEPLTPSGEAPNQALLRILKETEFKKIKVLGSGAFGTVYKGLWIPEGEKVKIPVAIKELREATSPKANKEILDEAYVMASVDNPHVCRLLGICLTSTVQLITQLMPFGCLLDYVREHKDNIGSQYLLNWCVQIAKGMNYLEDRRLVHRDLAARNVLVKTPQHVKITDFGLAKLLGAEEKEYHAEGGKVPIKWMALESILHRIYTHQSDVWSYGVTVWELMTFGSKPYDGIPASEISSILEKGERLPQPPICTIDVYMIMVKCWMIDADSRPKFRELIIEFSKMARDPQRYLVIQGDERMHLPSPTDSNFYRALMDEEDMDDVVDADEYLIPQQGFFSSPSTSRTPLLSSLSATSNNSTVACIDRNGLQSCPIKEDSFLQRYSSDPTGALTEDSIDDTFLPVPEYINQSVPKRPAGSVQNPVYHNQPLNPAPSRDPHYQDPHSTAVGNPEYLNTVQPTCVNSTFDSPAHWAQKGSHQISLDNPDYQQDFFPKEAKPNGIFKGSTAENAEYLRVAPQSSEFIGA
quantity: ICW Screen

Examples from the recorded data:
CC(C)C(=O)NC(c1cccs1)c1cc([N+](=O)[O-])c2cccnc2c1O (stereo not drawn) [compound 10950]: 33.87
Cc1ccnc(NC(c2ccc(C(F)(F)F)cc2)c2ccc3cccnc3c2O)c1 (stereo not drawn) [compound 10486]: 25.02
CCN1CCN(C(c2cccnc2)c2cc(Cl)c3cccnc3c2O)CC1 (stereo not drawn) [compound 10547]: 26.4
COc1ccc(C(Nc2ccccn2)c2ccc3cccnc3c2O)cc1 (stereo not drawn) [compound 10524]: 38.96
CCOc1cc(C(NC(C)=O)c2cc([N+](=O)[O-])c3cccnc3c2O)ccc1O (stereo not drawn) [compound 10951]: 38.95
CCOc1cc(C(Nc2ccccn2)c2ccc3cccnc3c2O)ccc1OC (stereo not drawn) [compound 1968]: 46.48
COc1ccc(C(Nc2cc(C)ccn2)c2ccc3cccnc3c2O)c(OC)c1OC (stereo not drawn) [compound 10031]: 34.62
COc1cc(C(Nc2cc(C)ccn2)c2ccc3cccnc3c2O)ccc1O (stereo not drawn) [compound 1973]: 54.76
Cc1cccc(NC(c2ccc(F)cc2)c2ccc3cccnc3c2O)n1 (stereo not drawn) [compound 10056]: 34.16
Oc1c(C(Nc2ccccn2)c2cccc(F)c2)cc(Cl)c2cccnc12 (stereo not drawn) [compound 10090]: 21.53

P. Cc1ccc(NC(c2ccccc2O)c2ccc3cccnc3c2O)nc1 (stereo not drawn) [compound 10430]
Q. Cc1ccnc(NC(c2ccc(F)cc2)c2ccc3cccnc3c2O)c1 (stereo not drawn) [compound 10522]
Q: Kindly compare P with Q and tell me which has the lower ICW Screen figure. Indicate your choice by writing its label.
A: Q
(Q: 26.6, P: 43.81)
